Target: estrogen receptor (Homo sapiens (Human))
Assay: 2×VIT ERE infection luciferase assay
Assay type: cell-based
Conditions: 1 uM compound + 1 nM 17β-estradiol (estrogen antagonism)
measurement label: Infection Luciferase Activity, 1 uM + 17β estradiol (%)
Give bare numbers, in %.

Study these solved cases before continuing.
{"structure": "Oc1ccc(-c2c(Cl)c3cc(O)ccc3n2Cc2ccc(OCCN3CCCC3)cc2)cc1", "test system": "estrogen receptor (Homo sapiens (Human))", "value units": "%", "meas value": 9}
{"structure": "N#Cc1c(-c2ccc(O)cc2)n(Cc2ccc(OCCN3CCCCC3)cc2)c2ccc(O)cc12", "test system": "estrogen receptor (Homo sapiens (Human))", "value units": "%", "meas value": "−1"}
{"structure": "CCCCN(CCCC)CCOc1ccc(Cn2c(-c3ccc(O)cc3)c(C)c3cc(O)ccc32)cc1", "test system": "estrogen receptor (Homo sapiens (Human))", "value units": "%", "meas value": 10}

Kindly consider the entry below.
Requested read-out Infection Luciferase Activity, 1 uM + 17β estradiol, target or system estrogen receptor (Homo sapiens (Human)), entry Cc1c(-c2ccccc2)n(Cc2ccc(OCCN3CCCCCC3)cc2)c2ccc(O)cc12 −4

====

Target: UniProt P03372
Assay: 2×VIT ERE infection luciferase assay
Format: cell-based
Conditions: 1 uM compound alone; percentage of activity as compared to 17β-estradiol
measurement label: Infection Luciferase Activity, 1 uM (%)
Numbers only, in %.

Please review the following examples before continuing.
{"molecule": "Cc1c(-c2ccc(O)cc2)n(Cc2ccc(OCCN3CCCCC3C)cc2)c2ccc(O)cc12 (stereo not shown) [No. 108]", "meas value": 11}
{"molecule": "Cc1c(-c2ccc(C(F)(F)F)cc2)n(Cc2ccc(OCCN3CCCCC3)cc2)c2ccc(O)cc12 [No. 123]", "meas value": "−1"}
{"molecule": "N#Cc1c(-c2ccc(O)cc2)n(Cc2ccc(OCCN3CCCCC3)cc2)c2ccc(O)cc12 [No. 138]", "meas value": "−2"}
{"molecule": "Cc1c(-c2ccc(O)cc2)n(Cc2ccc(OCCN3CCC(O)CC3)cc2)c2ccc(O)cc12 [No. 113]", "meas value": 14}
{"molecule": "CCCCN(CCCC)CCOc1ccc(Cn2c(-c3ccc(O)cc3)c(C)c3cc(O)ccc32)cc1 [No. 103]", "meas value": 13}

// each listed molecule needs a value for Infection Luciferase Activity, 1 uM
1. CCCN(CCC)CCOc1ccc(Cn2c(-c3ccc(O)cc3)c(C)c3cc(O)ccc32)cc1 [No. 102]
2. Cc1c(-c2ccc(OC(C)C)cc2)n(Cc2ccc(OCCN3CCCCC3)cc2)c2ccc(O)cc12 [No. 120]

1. 9
2. −1

====

Task for the reader: assign each of the following molecules its reported Infection Luciferase Activity, 1 uM.
Biological target: estrogen receptor (Homo sapiens (Human), UniProt P03372)
Sequence (P03372 whole entry): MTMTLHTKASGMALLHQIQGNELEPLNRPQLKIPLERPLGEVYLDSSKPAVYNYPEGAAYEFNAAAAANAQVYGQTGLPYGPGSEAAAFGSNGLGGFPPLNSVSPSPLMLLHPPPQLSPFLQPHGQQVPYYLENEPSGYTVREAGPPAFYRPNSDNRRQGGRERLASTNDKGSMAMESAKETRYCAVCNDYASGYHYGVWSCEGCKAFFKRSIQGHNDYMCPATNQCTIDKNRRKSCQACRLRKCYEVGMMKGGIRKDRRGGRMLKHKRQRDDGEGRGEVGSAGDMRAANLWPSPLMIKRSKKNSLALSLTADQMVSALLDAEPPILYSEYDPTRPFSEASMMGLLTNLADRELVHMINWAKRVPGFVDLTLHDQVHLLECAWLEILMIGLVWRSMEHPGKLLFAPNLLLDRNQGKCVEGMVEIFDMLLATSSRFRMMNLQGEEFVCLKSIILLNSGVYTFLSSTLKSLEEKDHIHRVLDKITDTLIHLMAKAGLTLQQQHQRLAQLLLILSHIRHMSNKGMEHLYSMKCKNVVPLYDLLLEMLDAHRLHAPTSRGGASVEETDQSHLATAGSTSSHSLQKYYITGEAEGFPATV
Assay: 2×VIT ERE infection luciferase assay
Format: cell-based
Conditions: 1 uM compound alone; percentage of activity as compared to 17β-estradiol
Answers are plain numbers, in %.

Example results:
{"molecule": "CCCCN(C)CCOc1ccc(Cn2c(-c3ccc(O)cc3)c(C)c3cc(O)ccc32)cc1", "measurement label": "Infection Luciferase Activity, 1 uM", "meas value": 5}
{"molecule": "Cc1c(-c2ccc(OC3CCCC3)cc2)n(Cc2ccc(OCCN3CCCCC3)cc2)c2ccc(O)cc12", "measurement label": "Infection Luciferase Activity, 1 uM", "meas value": 1}
{"molecule": "Cc1c(-c2ccc(O)cc2)n(Cc2ccc(OCC[N+](C)(C)C)cc2)c2ccc(O)cc12.[I-]", "measurement label": "Infection Luciferase Activity, 1 uM", "meas value": 10}
{"molecule": "Cc1c(-c2ccccc2)n(Cc2ccc(OCCN3CCCCC3)cc2)c2ccc(O)cc12", "measurement label": "Infection Luciferase Activity, 1 uM", "meas value": 0}
{"molecule": "Cc1c(-c2ccc(O)cc2)n(Cc2ccc(OCCN3CCCC3)cc2)c2ccc(O)cc12", "measurement label": "Infection Luciferase Activity, 1 uM", "meas value": 12}
{"molecule": "Oc1ccc(-c2c(Cl)c3cc(O)ccc3n2Cc2ccc(OCCN3CCCC3)cc2)cc1", "measurement label": "Infection Luciferase Activity, 1 uM", "meas value": 7}

For every listed record, write down its Infection Luciferase Activity, 1 uM.
1. CCc1c(-c2ccc(O)cc2)n(Cc2ccc(OCCN3CCCCC3)cc2)c2ccc(O)cc12
2. Cc1c(-c2ccc(O)cc2)n(Cc2ccc(OCCN3CCCC(C)C3)cc2)c2ccc(O)cc12 (centres unmarked)

1: 6; 2: 6
